test.name: NMR-pH titrations (acid dissociation constants, species distribution)
Type: physicochemical
experimental.setup: aqueous solution, 95% (v/v) H2O and 5% (v/v) D2O, NMR-pH titration, 25°C, ionic strength 0.15 M, ascorbic acid as antioxidant; read-out: pKa2 (acid dissociation constant)
Description: NMR-pH titrations were performed on a Varian VNMRS spectrometer (600 MHz for ^1H). Spectra were recorded at 25°C. […] Spectra were processed with VNMRj 3.2a software. pH values were read on a Metrohm 2.780.0010 precision pH meter with a 6.0258.600 Unitrode glass Pt 1000 electrode (Metrohm AG, Herisau, Switzerland). […] In highly basic solutions, pH was measured by NMR-pH indicator molecules as well to avoid the uncertainty of the glass electrode pH-meter readings in such solutions [24]. […]
experimental.readout: pKa

Given the entry O=C(O)[C@H]1O[C@@H](Oc2cc3oc(-c4ccccc4)cc(=O)c3c(O)c2O)[C@H](O)[C@@H](O)[C@@H]1O [Baicalin, 7-D-glucuronic acid-5,6-dihydroxyflavone] , report its measured pKa.
8.56

----------
test.name: NMR-pH titrations (acid dissociation constants, species distribution)
Assay type: physicochemical
experimental.setup: aqueous solution, 95% (v/v) H2O and 5% (v/v) D2O, NMR-pH titration, 25°C, ionic strength 0.15 M, ascorbic acid as antioxidant; read-out: pKa3 (acid dissociation constant)
experimental.readout: pKa

Please look up its pKa: O=C(O)[C@H]1O[C@@H](Oc2cc3oc(-c4ccccc4)cc(=O)c3c(O)c2O)[C@H](O)[C@@H](O)[C@@H]1O [Baicalin, 7-D-glucuronic acid-5,6-dihydroxyflavone]
> 14

----------
test.name: Distribution coefficient measurements by the stir-flask method (octanol/water)
Format: physicochemical
experimental.setup: standardized 0.15 M HCl solution, 25°C, SD in brackets, read-out: log D (characterizes the log P of the neutral form)
Protocol: The distribution coefficients were calculated from the absorbance of the molecules before and after partitioning at several octanol/water phase ratios. […] The pH of the phosphate buffer was measured using a Metrohm 6.0204.100 combined pH glass electrode and a Metrohm 780 pH meter. The concentration change of baicalin was followed by UV-absorbance measurements. […] The distribution coefficients were calculated from the absorbance of baicalin before and after partitioning. […]
experimental.readout: logD at 2 h
Enter a number only.

Given the molecule O=C(O)[C@H]1O[C@@H](Oc2cc3oc(-c4ccccc4)cc(=O)c3c(O)c2O)[C@H](O)[C@@H](O)[C@@H]1O [Baicalin, 7-D-glucuronic acid-5,6-dihydroxyflavone] , what is its reported logD at 2 h?
1.28

----------
test.name: Thermodynamic solubility by saturation shake-flask method
Format: physicochemical
experimental.setup: thermodynamic from solid; pH 6.5 FaSSIF, 37°C; read-out: Thermodynamic solubility
experimental.readout: solubility thermodynamic at 24 h (µg/mL)
Give your result in µg/mL as a bare value.

solubility thermodynamic at 24 h lookup needed for O=C(O)[C@H]1O[C@@H](Oc2cc3oc(-c4ccccc4)cc(=O)c3c(O)c2O)[C@H](O)[C@@H](O)[C@@H]1O [Baicalin, 7-D-glucuronic acid-5,6-dihydroxyflavone] , thanks.
8110

----------
test.name: Thermodynamic solubility by saturation shake-flask method
Type: physicochemical
experimental.setup: distilled water (Aqua dest.), 37°C; read-out: Thermodynamic solubility
experimental.readout: solubility thermodynamic at 24 h (µg/mL)
Your answer is read as µg/mL, so omit the unit and give the number.

Could you share which solubility thermodynamic at 24 h value was measured for O=C(O)[C@H]1O[C@@H](Oc2cc3oc(-c4ccccc4)cc(=O)c3c(O)c2O)[C@H](O)[C@@H](O)[C@@H]1O [Baicalin, 7-D-glucuronic acid-5,6-dihydroxyflavone] ?
67

----------
test.name: Thermodynamic solubility by saturation shake-flask method
Type: physicochemical
experimental.setup: simulated gastric fluid (SGF), simulated gastric fluid, thermodynamic from solid; pH 1.2 SGF, 37°C; read-out: Thermodynamic solubility (intrinsic solubility)
experimental.readout: solubility thermodynamic at 24 h (µg/mL)
Write down the numeric answer in µg/mL and omit the unit.

I have this molecule here, O=C(O)[C@H]1O[C@@H](Oc2cc3oc(-c4ccccc4)cc(=O)c3c(O)c2O)[C@H](O)[C@@H](O)[C@@H]1O [Baicalin, 7-D-glucuronic acid-5,6-dihydroxyflavone] , and I need its recorded solubility thermodynamic at 24 h.
11.6

----------
test.name: Thermodynamic solubility by saturation shake-flask method
Type: physicochemical
experimental.setup: simulated intestinal fluid (SIF), fassgf or other biorelevant, thermodynamic from solid; pH 6.8 SIF, 37°C; read-out: Thermodynamic solubility
experimental.readout: solubility thermodynamic at 24 h (mg/mL)
Lab book: enter the figure in mg/mL, no units written.

Please give the measured solubility thermodynamic at 24 h for this molecule: O=C(O)[C@H]1O[C@@H](Oc2cc3oc(-c4ccccc4)cc(=O)c3c(O)c2O)[C@H](O)[C@@H](O)[C@@H]1O [Baicalin, 7-D-glucuronic acid-5,6-dihydroxyflavone]
10.5
